The values you see were collected from a melting point compilation (Tetko et al.; mined from patent text by program, amines drawn as free bases though some values may be those of a salt).

Measured melting point accompanies every entry in the list below.
Measurement kind: melting point

Compound: COc1ccc(Cn2c(S)nc3ccccc32)cc1
Measurement kind: melting point
Reported measurement: 199 to 200 °C

Compound: CC(CCN1C(=O)c2ccccc2C1=O)=NO
Measurement kind: melting point
Reported measurement: 151 to 172 °C

Compound: O=C(NCc1ccc(Cl)cc1)c1cnc2c(O)cccc2c1O
Measurement kind: melting point
Reported measurement: 319 to 320 °C

Compound: CC(=O)Oc1ccc(-c2cnc(C)[nH]c2=O)cc1OC(C)=O
Measurement kind: melting point
Reported measurement: 178 to 179 °C

Compound: Cc1ccc2c3c(ccc2n1)OC[C@H](CN1CCN(c2cccc4c2OCCO4)CC1)O3
Measurement kind: melting point
Reported measurement: 154 to 155 °C

Compound: CCC(C)n1cc(Cl)nc(N2CCc3cc(OC)cc(Br)c32)c1=O (stereo unspecified)
Measurement kind: melting point
Reported measurement: 155 to 157 °C

Compound: CC(C)NOC(=O)c1n[nH]c2c(=O)[nH]c3cc(Cl)ccc3c(=O)c12
Measurement kind: melting point
Reported measurement: 224 °C

Compound: O=C(O)CCCNC(=O)COc1ccccc1
Measurement kind: melting point
Reported measurement: 91 to 94 °C

Compound: O=C(CCCCN1CCC(Cc2ccccc2)CC1)c1ccc2c(c1)-c1ccc(C(=O)CCCCN3CCC(Cc4ccccc4)CC3)c3cccc-2c13
Measurement kind: melting point
Reported measurement: 126 to 128 °C

Compound: O=Cc1ccc(OC2OC(CO)C(O)C(O)C2O)c2ccccc12 (stereo unspecified)
Measurement kind: melting point
Reported measurement: < 255 °C

Compound: O=C1Cc2cccc(Oc3ccccc3F)c2O1
Measurement kind: melting point
Reported measurement: 82 to 84 °C

Compound: Cc1ccc(NC(=N)c2ccncc2)cc1
Measurement kind: melting point
Reported measurement: 120 to 123 °C

Compound: Cn1cnc2c(OC3SCC(O)C(O)C3O)cccc21 (stereo unspecified)
Measurement kind: melting point
Reported measurement: 180 °C

Compound: O=S1(=O)NCN(C2CC2)c2cccc(Br)c21
Measurement kind: melting point
Reported measurement: 189 to 191 °C

Compound: CCCCCCCCCCCCCCCCCc1nc(C(C)N)c[nH]1 (stereo unspecified)
Measurement kind: melting point
Reported measurement: 38 to 40 °C

Compound: CCN1C(=O)c2cccnc2N(C)c2nc(-c3ccc[nH]3)ccc21
Measurement kind: melting point
Reported measurement: 161 to 162 °C

Compound: Nc1ncnc2c1ncn2[C@@H]1C=C[C@H](CO)C1
Measurement kind: melting point
Reported measurement: 121 to 124 °C

Compound: CCCCCCCCCCCc1coc(NC(=O)Nc2c(C(C)C)cccc2C(C)C)n1
Measurement kind: melting point
Reported measurement: 104 to 108 °C

Compound: Cc1ccc(C(=O)NC(CF)NC(=S)Nc2cccc([N+](=O)[O-])c2)cc1 (stereo unspecified)
Measurement kind: melting point
Reported measurement: 148 to 155 °C

Compound: C=C(C)C(=O)OCCCCCCN(C)c1ccc(C=Cc2ccc([N+](=O)[O-])cc2)cc1
Measurement kind: melting point
Reported measurement: 109 to 111 °C

Compound: O=C(O)c1ccc(OCCCO/N=C/c2cc(C(F)(F)F)cc(C(F)(F)F)c2)cc1O
Measurement kind: melting point
Reported measurement: 182 to 183 °C

Compound: COc1cc(C=CC=O)ccc1OCc1nc(-c2ccco2)oc1C
Measurement kind: melting point
Reported measurement: 125 to 126 °C

Compound: c1ccc(CN2CC3OC(c4ccccc4)(C2)c2ccccc23)cc1 (stereo unspecified)
Measurement kind: melting point
Reported measurement: 100 to 101 °C

Compound: CN(C)c1cc(Cl)c2c(c1)NC(=O)C(C)(c1ccccc1)C2=O (stereo unspecified)
Measurement kind: melting point
Reported measurement: 224 to 226 °C

Compound: Nc1ncc(-c2ccccc2COC2CCCCC2)s1
Measurement kind: melting point
Reported measurement: 102 °C

Compound: Cc1cc(C#N)cc(C(=O)c2c(C(C)C)c(=O)[nH]c(=O)n2CC(C)C)c1
Measurement kind: melting point
Reported measurement: 200 to 201 °C

Compound: O=C(Oc1c(Br)c(Br)c(Br)c(Br)c1Br)c1ccccc1CCl
Measurement kind: melting point
Reported measurement: 201 to 205 °C

Compound: CCC(O)(CC)c1ccc(-c2cccc(OCc3ccc(CO)c(CO)c3)c2C)c(C)c1
Measurement kind: melting point
Reported measurement: 81 to 82 °C

Compound: O=C(O)c1ccc(Cl)cc1Nc1ccc(O)cc1
Measurement kind: melting point
Reported measurement: 164 to 165 °C

Compound: COC(=O)Cc1ccc2c(c1)C(C)(C)CCC2(C)C
Measurement kind: melting point
Reported measurement: 83 to 85 °C

Compound: Cc1oc2c(C)c(C)c(NCc3ccc(F)cc3)c(C)c2c1-c1ccccc1
Measurement kind: melting point
Reported measurement: 135 to 136 °C

Compound: CC(=O)NC[C@H]1CN(c2ccc(N3CCC(O)(C[N+](=O)[O-])CC3)c(F)c2)C(=O)O1
Measurement kind: melting point
Reported measurement: 186 to 187 °C

Compound: CC(NC(=O)Cc1cc(F)cc(F)c1)C(=O)NC1C(=O)N(C)C(c2ccccc2)c2ccccc21 (stereo unspecified)
Measurement kind: melting point
Reported measurement: 115 °C

Compound: COC(=O)c1ccc2c(c1)c(Cc1ccc(C(=O)NS(=O)(=O)c3ccccc3C)cc1OC)cn2C
Measurement kind: melting point
Reported measurement: 185 to 187 °C

Compound: OCCCCC=CCCc1ccc(OCc2ccccc2)cc1
Measurement kind: melting point
Reported measurement: 65 to 67 °C

Compound: COc1ccc(C(=O)Nc2ccccc2)cc1NCc1ccc(C)cc1
Measurement kind: melting point
Reported measurement: 184 to 186 °C

Compound: CCN1C(=O)C2=C(c3cccc(Cl)c3)N(CC)C(=O)C2=C1c1cccc(Cl)c1
Measurement kind: melting point
Reported measurement: 203 to 205 °C

Compound: CC(c1ccc(C(F)(F)F)nc1)S(C)=NC#N (stereo unspecified)
Measurement kind: melting point
Reported measurement: 78 to 80 °C

Compound: CC(C)n1c(S(=O)(=O)c2ccc(OCc3ccccc3)cc2)nc2ccccc21
Measurement kind: melting point
Reported measurement: 94 to 96 °C

Compound: CC1(C)OC(=O)Nc2ccc(-c3cc([N+](=O)[O-])cc([N+](=O)[O-])c3)cc21
Measurement kind: melting point
Reported measurement: 297 to 298 °C

Compound: CCn1cnc2c(Nc3cccc(F)c3)nc(Cl)nc21
Measurement kind: melting point
Reported measurement: 136 °C
